Origin of the recorded values: patent US20100041696A1

Consider the following compounds; for each one, report its IC50.
# target.or.system: SCD (stearoyl-CoA desaturase), SCD-containing rat microsomes (Rattus norvegicus, UniProt P07308)
# Construct: SCD-containing rat microsomes (2 μg protein); from tissue
# assay.explanation: in vitro assay for SCD activity based on production of [3H]H2O from [9,10-3H] stearoyl Coenzyme A
# Format: biochemical
# stated.conditions: SCD-containing rat microsomes (2 μg protein), substrate [9,10-3H] stearoyl Coenzyme A 1 μM, 5 minutes preincubation, 6 minutes incubation; read-out: average pIC50 value, in vitro assay for SCD activity (converted)
# Procedure: The compounds of the present invention may be analysed in vitro for SCD activity using an assay based on the production of [^3H]H2O, which is released during the enzyme-catalyzed generation of the monounsaturated fatty acyl CoA product. The assay is performed in a 96-well filtration plates. […]
Counter-ions that a name gives are not always drawn.

input: Return reported IC50; argument: O=C(Nc1cnn(Cc2ccccc2)c1)c1ccc2c(c1)CCNC2 [hydrochloride]
output: 3.16 to 10 µM

input: Can you look up the measured IC50 of O=C(Nc1cnn(COc2ccc(Cl)cc2)c1)c1ccc2c(c1)CCNC2 [hydrochloride] for me?
output: 3.16 to 10 µM

input: Entry N#Cc1cccc(Cn2cc(NC(=O)c3ccc4c(c3)CCNC4)cn2)c1 [hydrochloride] has what IC50?
output: 3.16 to 10 µM

input: Entry under review: O=C(Nc1cnn(Cc2ccccc2Cl)c1)c1ccc2c(c1)CCNC2 . Reported IC50?
output: 3.16 to 10 µM

input: I have this compound here, O=C(Nc1ccc2c(c1)CCNC2)c1cnn(Cc2ccc(C(F)(F)F)cc2)c1 [hydrochloride] , and I need its recorded IC50.
output: > 10 µM

input: Which value of IC50 has been reported for CC(C)c1ccc(Cn2cc(NC(=O)c3ccc4c(c3)CCN(C(=O)OC(C)(C)C)C4)cn2)cc1 in the records?
output: > 10 µM

* * *

# target.or.system: SCD (stearoyl-CoA desaturase), SCD-containing rat microsomes (Rattus norvegicus)
# Construct: SCD-containing rat microsomes (2 μg protein); from tissue
# Sequence (P07308 1-358): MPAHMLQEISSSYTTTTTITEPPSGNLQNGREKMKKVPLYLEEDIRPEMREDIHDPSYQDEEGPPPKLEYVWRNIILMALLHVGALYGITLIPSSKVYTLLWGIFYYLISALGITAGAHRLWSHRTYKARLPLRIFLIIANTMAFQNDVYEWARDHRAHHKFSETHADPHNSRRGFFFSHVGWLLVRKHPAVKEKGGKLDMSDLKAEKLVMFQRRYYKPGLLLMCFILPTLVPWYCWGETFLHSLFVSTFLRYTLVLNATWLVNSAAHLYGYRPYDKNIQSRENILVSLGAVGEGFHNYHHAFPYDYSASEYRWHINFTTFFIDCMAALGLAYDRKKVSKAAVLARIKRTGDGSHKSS
# assay.explanation: in vitro assay for SCD activity based on production of [3H]H2O from [9,10-3H] stearoyl Coenzyme A
# Format: biochemical
# stated.conditions: SCD-containing rat microsomes (2 μg protein), substrate [9,10-3H] stearoyl Coenzyme A 1 μM, 5 minutes preincubation, 6 minutes incubation; read-out: average pIC50 value, in vitro assay for SCD activity (converted)
Structures can show the parent of a compound that is named as a salt.
recorded.metric: IC50

input: Quick check: IC50 of CC(C)c1nn(Cc2ccc(Cl)c(Cl)c2)cc1C(=O)Nc1ccc2c(c1)CCNC2 [hydrochloride] ?
output: > 10 µM

input: Would you kindly share the measured IC50 for O=C(Nc1ccc2c(c1)CCNC2)c1cnn(Cc2ccc(Cl)cc2)c1 [hydrochloride] ?
output: 3.16 to 10 µM

input: I have this compound here, CC(C)COc1ccc(Cl)cc1Cn1cc(NC(=O)c2ccc3c(c2)CCN(C(=O)OC(C)(C)C)C3)cn1 , and I need its recorded IC50.
output: > 10 µM

input: // returns reported IC50 for input Cc1ccc(Cn2cc(NC(=O)c3ccc4c(c3)CCNC4)cn2)cc1 [Example 14]
output: 3.16 to 10 µM

input: Would you kindly share the measured IC50 for CC(C)c1ccc(Cn2cc(NC(=O)c3ccc4c(c3)CCNC4)cn2)cc1 [hydrochloride] ?
output: > 10 µM

input: Query (compound): CC(C)COc1ccc(Cl)cc1Cn1cc(NC(=O)c2ccc3c(c2)CCNC3)cn1 [hydrochloride] ; field requested: IC50
output: > 10 µM

input: Which IC50 reading was recorded for the compound CC(C)c1c(C(=O)Nc2ccc3c(c2)CCNC3)cnn1Cc1ccc(Cl)c(Cl)c1 [hydrochloride] ?
output: > 10 µM

input: Need IC50 of O=C(Nc1cnn(Cc2ccccc2C(F)(F)F)c1)c1ccc2c(c1)CCNC2 [hydrochloride] , thanks.
output: 3.16 to 10 µM
